# targetDesc: T1, recombinant truncated mouse furin (mouse, UniProt P23188 108-714, N-glycosylated at two of three potential sites)
# T1 construct: extracellular domain; Purified by ion exchange and gel permeation; also called recombinant furin; recombinant mouse furin
# T1 sequence (P23188 108-714): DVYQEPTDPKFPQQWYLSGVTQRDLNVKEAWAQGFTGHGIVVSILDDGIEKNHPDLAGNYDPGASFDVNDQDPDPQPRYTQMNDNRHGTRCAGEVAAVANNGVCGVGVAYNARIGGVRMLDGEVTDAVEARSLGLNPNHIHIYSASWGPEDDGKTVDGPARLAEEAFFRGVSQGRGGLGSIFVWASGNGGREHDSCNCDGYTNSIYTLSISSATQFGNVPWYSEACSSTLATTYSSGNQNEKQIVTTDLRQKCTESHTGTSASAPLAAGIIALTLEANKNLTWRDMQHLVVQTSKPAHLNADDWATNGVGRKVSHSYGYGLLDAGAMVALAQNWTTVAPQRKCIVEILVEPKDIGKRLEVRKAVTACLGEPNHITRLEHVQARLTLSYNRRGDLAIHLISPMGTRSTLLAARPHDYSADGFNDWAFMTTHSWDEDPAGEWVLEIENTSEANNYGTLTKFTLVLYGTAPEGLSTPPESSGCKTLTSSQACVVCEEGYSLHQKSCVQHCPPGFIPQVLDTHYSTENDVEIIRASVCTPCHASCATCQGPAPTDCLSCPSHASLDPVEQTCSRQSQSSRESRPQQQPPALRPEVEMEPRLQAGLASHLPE
# experiment: enzyme inhibition, pERTKR-MCA hydrolysis (fluorescence), competitive Ki
measurementType: Ki
Write down the value, and be sure its unit follows.

Input H-LLRVKR-OH (L-hexapeptide without terminal groups; also called unmodified LLRVKR) . Output Ki: 420 nM

Input Ac-LLRVKR-NH2 (L-hexapeptide; also called acetylated and amidated LLRVKR) [Ac-LLRVKR-NH2] . Output Ki: 3400 nM

Input Ac-LLRVKR-OH (L-hexapeptide, free C-terminus) [Ac-LLRVKR] . Output Ki: 3500 nM

Input H-LLRVKR-NH2 (L-hexapeptide, free N-terminus) [LLRVKR-NH2] . Output Ki: 800 nM
